Quick reference for IC50 among some compounds
# tested system: Carboxy-terminal domain RNA polymerase II polypeptide A small phosphatase 1 (Homo sapiens)
# Sequence (Q9GZU7 whole entry, the tested form may be a part): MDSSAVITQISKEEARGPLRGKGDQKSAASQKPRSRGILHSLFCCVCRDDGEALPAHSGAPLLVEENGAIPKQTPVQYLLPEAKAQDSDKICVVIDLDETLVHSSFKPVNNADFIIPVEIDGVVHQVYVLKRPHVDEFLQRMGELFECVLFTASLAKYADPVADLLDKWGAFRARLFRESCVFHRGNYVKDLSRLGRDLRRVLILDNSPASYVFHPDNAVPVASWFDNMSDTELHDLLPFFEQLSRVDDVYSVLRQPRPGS
# test protocol: inhibitors of CTDSP1, concentration-response testing, biochemical assay, absorbance-based, actives from ultra-high-throughput screening (AID 540297)
# Format: functional
The source made the active and inactive calls.

sample smiles	IC50
O=C(N/N=C/c1ccc2c(c1)OCO2)c1cc(-c2ccco2)nc2ccccc12	10.8 µM (active)
O=C(Cn1cnc2c(nnn2-c2ccccc2)c1=O)NCc1ccc(F)cc1	6.76 µM (active)
C/C(CC(=O)NC1CCCCC1)=N\NC(=O)Cc1ccc(-c2ccccc2)cc1	7.87 µM (active)

Entry under test: Cc1ccc([N+](=O)[O-])cc1NC(=O)Cc1cccs1 . Its IC50 was 4.16 µM (active)

----------
# test protocol: Luminescence Cell-Based Dose Response HTS to Identify Activators of Luciferase Translation or Activity in H4 […] Cells. [Related pubchem assays: 1829 (Project Summary), 1814 (Primary HTS)]
# Assay type: functional
Activity calls are given as the source filed them.
Quick reference for EC50 among some compounds

compound	EC50
Cc1nn(-c2ccccc2)c(/N=C/c2ccccc2O)c1-c1ccccc1	45.7 µM (active)
CC(C)c1ccc(NC(=O)NC2CCCCC2)cc1	0.114 µM (active)

Entry under test: Cn1c(C(=O)NCC2CCCO2)cc2oc3ccccc3c21 (centres undefined) . Its EC50 was 0.289 µM (active)

Entry under test: O=C(Nc1cccc2ccccc12)c1onc2c1CCCC2 . Its EC50 was 78.7 µM (active)

----------
# tested system: Streptokinase A (Streptococcus pyogenes serotype M1, UniProt P10520)
# Sequence (P10520 whole entry): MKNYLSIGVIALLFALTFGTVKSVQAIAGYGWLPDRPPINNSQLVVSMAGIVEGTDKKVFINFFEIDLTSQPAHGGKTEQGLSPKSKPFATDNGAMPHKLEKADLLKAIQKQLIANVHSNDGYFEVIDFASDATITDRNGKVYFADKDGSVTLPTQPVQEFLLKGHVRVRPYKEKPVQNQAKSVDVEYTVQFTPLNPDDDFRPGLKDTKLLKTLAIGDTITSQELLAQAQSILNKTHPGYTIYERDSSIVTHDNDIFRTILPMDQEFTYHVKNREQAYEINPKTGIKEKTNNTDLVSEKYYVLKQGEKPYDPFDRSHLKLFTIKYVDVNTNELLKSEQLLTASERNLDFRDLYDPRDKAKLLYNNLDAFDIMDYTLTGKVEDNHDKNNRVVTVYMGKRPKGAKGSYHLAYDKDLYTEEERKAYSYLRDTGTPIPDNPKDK
# test protocol: S. pyogenes streptokinase expression inhibitors, potency, dose response, plasminogen activation absorbance, OD405 (AID 1914);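 note: secreted streptokinase activity via plasminogen activation per viability signal from cell pellet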
# Format: functional, Streptococcus pyogenes M1 GAS
The source made the active and inactive calls.
Quick reference for EC50 among some compounds

Take a look at these entries with their results.
compound	tested system	val
CSc1nnc2ccc(-c3ccc(C)cc3)nn12	Streptokinase A (Streptococcus pyogenes serotype M1, UniProt P10520)	> 150 µM (not active)
CCCCCCSc1cc(-c2nc3cnccn3c2NCc2ccccc2)ccc1OC	Streptokinase A (Streptococcus pyogenes serotype M1, UniProt P10520)	16.7 µM (active)
COc1ccccc1CN1CN(S(=O)(=O)c2ccccc2)c2nc3ccccc3nc21	Streptokinase A (Streptococcus pyogenes serotype M1, UniProt P10520)	55.1 µM (active)

Query compound follows.
Entry under test: O=C1C2=C(N=C(S)NC2c2ccc(Cl)cc2)NC(c2ccc(Cl)cc2)N1c1ccc(Cl)cc1 (centres undefined) . Its EC50 was > 150 µM (not active)

----------
Quick reference for AC50 among some compounds
# tested system: DNA repair and recombination protein RAD54-like (Homo sapiens, UniProt Q92698)
# Sequence (Q92698 whole entry): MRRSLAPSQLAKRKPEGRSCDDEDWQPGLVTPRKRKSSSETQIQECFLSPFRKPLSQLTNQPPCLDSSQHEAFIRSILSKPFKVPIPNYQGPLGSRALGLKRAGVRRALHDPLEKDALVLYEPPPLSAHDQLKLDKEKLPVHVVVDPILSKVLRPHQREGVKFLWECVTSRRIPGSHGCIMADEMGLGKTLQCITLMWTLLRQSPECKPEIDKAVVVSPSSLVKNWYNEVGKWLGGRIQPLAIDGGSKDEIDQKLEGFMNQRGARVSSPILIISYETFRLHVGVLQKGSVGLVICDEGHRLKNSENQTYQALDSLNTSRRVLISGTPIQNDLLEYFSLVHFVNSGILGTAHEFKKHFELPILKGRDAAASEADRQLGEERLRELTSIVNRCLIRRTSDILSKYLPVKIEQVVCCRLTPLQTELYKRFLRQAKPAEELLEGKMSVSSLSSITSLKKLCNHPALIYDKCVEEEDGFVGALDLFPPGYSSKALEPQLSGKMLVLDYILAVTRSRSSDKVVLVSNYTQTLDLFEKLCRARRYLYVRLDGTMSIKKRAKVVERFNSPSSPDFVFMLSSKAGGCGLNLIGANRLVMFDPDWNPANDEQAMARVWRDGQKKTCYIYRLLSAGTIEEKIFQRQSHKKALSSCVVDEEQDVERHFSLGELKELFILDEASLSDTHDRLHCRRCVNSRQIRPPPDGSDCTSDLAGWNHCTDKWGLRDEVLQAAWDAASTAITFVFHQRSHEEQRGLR
# test protocol: inhibitors of human RAD54 branch migration, confirmation, biochemical, fluorescence, cherry-picked samples, dose series (AID 651657)
# Type: functional
Active and inactive are the calls of the source.

Take a look at these entries with their results.
compound	AC50
CN1CCCC1CCNc1ccc2sc3ccccc3c(=O)c2c1 (centres undefined)	13.6 µM (active)
Cc1cccc(-c2nc(NCCCN(C)C)c3ccccc3n2)c1	21.4 µM (active)

Entry under test: c1ccc2c3nc[nH]c(N4CCN(C5CCCCC5)CC4)c-3nc2c1 . Its AC50 was 40.5 µM (active)

Entry under test: CCOC(=O)c1c(C)n(-c2ccc(OC)cc2)c2ccc(O)c(CN(C)C)c12 . Its AC50 was 52.6 µM (active)
